Target: recombinant human HDAC1 (Homo sapiens (Human), UniProt Q13547)
Sequence (Q13547 whole entry): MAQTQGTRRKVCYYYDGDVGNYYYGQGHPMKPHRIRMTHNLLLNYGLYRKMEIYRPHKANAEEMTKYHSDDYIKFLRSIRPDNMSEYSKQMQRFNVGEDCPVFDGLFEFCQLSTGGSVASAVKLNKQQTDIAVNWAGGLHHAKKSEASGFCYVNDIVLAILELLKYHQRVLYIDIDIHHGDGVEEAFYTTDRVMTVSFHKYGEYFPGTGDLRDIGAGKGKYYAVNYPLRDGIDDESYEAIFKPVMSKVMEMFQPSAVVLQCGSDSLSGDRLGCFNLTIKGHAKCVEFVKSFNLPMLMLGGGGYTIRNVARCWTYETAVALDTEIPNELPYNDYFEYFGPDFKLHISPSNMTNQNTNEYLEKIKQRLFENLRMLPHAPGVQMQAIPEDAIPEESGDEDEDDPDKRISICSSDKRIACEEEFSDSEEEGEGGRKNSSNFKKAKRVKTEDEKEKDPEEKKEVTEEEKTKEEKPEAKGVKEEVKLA
Test: Enzymatic screening, HDAC1 inhibition (fluorogenic FdL_G substrate)
Observable: IC50

Solved entries (count: 3):
1) C[C@H]1CN(c2ccc(-c3nnn(Cc4ccc(-c5nnc(C(F)F)o5)cc4)n3)cn2)CCN1	> 200 µM
2) CC(C)(C)OC(=O)N1CCC2(C1)C(=O)Nc1ccc(-c3cn(Cc4ccc(-c5nnc(C(F)F)o5)cn4)nn3)cc12 (single isomer, unassigned) [compound 266]	> 200 µM
3) O=C(Nc1cccc(-c2cn(Cc3ccc(-c4nnc(C(F)F)o4)cc3Cl)nn2)c1)N1CCOCC1	> 1000 µM

Next item in the queue.
Under recombinant human HDAC1 (Homo sapiens (Human), UniProt Q13547): IC50 value of "[2H]C([2H])(c1ccc(-c2nnc(C(F)F)o2)cc1)n1cc(-c2ccc3nc(N)sc3c2)nn1" ?
> 1000 µM

###

Molecular target: recombinant human HDAC1 (Homo sapiens (Human))
Assay: Enzymatic screening, HDAC1 inhibition (fluorogenic FdL_G substrate)
Observable: IC50

1. CN1CC(C(=O)Nc2cccc(-c3cn(Cc4ccc(-c5nnc(C(F)F)o5)cc4)nn3)c2)C1 [compound 149]	> 200 µM

Find the recorded IC50 belonging to Fc1cc(-c2nnc(C(F)F)o2)ccc1Cn1cnc(-c2ccc(NC3=NCCN3)cc2)c1 [compound 357] and report it.
> 1000 µM

Proceed to NC(=O)c1cc(-c2nnn(Cc3ccc(-c4nnc(C(F)F)o4)cc3)n2)ccc1N [compound 72]
> 200 µM

Proceed to CC(=O)N1CCC(c2nnn(Cc3ccc(-c4nnc(C(F)F)o4)cc3)n2)CC1 [compound 257]
> 200 µM

###

Assay: Stability to Phase I metabolism in rat S9 liver fraction
Conditions: after 90 minutes, 37° C.
Observable: residual percentage in RAT S9 FRACTION (%)

1) FC(F)c1nnc(-c2ccc(Cn3cc(-c4ccc5nc(Cl)[nH]c5c4)nn3)nc2)o1	90
2) O=C(Nc1cccc(-c2cn(Cc3ccc(-c4nnc(C(F)F)o4)c(F)c3)nn2)c1)N1CCOCC1	88
3) CC(c1ccc(-c2nnc(C(F)F)o2)c(F)c1)n1cc(-c2ccc(N)nc2)nn1 (stereo not drawn)	90

###

Experiment: Stability in rat plasma
Settings: after 4 hours, 37° C.
Observable: residual percentage in RAT PLASMA (%)

1) CN1CCC(NC(=O)c2cccc(-c3nnn(Cc4ccc(-c5nnc(C(F)F)o5)cc4)n3)c2)CC1 [compound 80]	88
2) CCC[C@@H](c1ccc(-c2nnc(C(F)F)o2)cc1)n1cc(-c2ccc(N)nc2)nn1 (stereo in doubt) [compound 193]	92
3) Cn1c(N)nc2cc(-c3cn(Cc4ccc(-c5nnc(C(F)F)o5)cc4)nn3)ccc21 [Compd. 23]	92

###

Overview of reported IC50 across a group of molecules:
Target: recombinant human HDAC1 (Homo sapiens (Human))
Test: Enzymatic screening, HDAC1 inhibition (fluorogenic FdL_G substrate)

Solved entries (count: 5):
1. Cn1c(N)nc2cc(-c3cn(Cc4ccc(-c5nnc(C(F)F)o5)cc4Cl)nn3)ccc21 [compound 344]	84.4 µM
2. FC(F)c1nnc(-c2ccc(Cn3nnc(-c4ccc(CN5CCCCC5)cc4)n3)cc2)o1 [compound 87]	> 200 µM
3. O=C1Nc2ccc(-c3cn(Cc4ccc(-c5nnc(C(F)F)o5)cn4)nn3)cc2[C@@]12CCNC2 (single isomer, unassigned) [compound 273]	> 200 µM
4. NC(=O)c1cc(-c2nnn(Cc3ccc(-c4nnc(C(F)F)o4)cc3)n2)cnc1N [compound 76]	> 200 µM
5. O=C(Nc1ccc(-c2cn(Cc3ccc(-c4nnc(C(F)F)o4)cn3)cn2)cn1)C(F)F [compound 126]	> 200 µM

Next item in the queue.
Under recombinant human HDAC1 (Homo sapiens (Human)): IC50 value of Nc1ncnc2cc(-c3cn(Cc4ccc(-c5nnc(C(F)F)o5)cc4)nn3)ccc12 [compound 84] ?
> 200 µM

###

Molecular target: recombinant human HDAC6 (Homo sapiens (Human))
Sequence (Q9UBN7 whole entry): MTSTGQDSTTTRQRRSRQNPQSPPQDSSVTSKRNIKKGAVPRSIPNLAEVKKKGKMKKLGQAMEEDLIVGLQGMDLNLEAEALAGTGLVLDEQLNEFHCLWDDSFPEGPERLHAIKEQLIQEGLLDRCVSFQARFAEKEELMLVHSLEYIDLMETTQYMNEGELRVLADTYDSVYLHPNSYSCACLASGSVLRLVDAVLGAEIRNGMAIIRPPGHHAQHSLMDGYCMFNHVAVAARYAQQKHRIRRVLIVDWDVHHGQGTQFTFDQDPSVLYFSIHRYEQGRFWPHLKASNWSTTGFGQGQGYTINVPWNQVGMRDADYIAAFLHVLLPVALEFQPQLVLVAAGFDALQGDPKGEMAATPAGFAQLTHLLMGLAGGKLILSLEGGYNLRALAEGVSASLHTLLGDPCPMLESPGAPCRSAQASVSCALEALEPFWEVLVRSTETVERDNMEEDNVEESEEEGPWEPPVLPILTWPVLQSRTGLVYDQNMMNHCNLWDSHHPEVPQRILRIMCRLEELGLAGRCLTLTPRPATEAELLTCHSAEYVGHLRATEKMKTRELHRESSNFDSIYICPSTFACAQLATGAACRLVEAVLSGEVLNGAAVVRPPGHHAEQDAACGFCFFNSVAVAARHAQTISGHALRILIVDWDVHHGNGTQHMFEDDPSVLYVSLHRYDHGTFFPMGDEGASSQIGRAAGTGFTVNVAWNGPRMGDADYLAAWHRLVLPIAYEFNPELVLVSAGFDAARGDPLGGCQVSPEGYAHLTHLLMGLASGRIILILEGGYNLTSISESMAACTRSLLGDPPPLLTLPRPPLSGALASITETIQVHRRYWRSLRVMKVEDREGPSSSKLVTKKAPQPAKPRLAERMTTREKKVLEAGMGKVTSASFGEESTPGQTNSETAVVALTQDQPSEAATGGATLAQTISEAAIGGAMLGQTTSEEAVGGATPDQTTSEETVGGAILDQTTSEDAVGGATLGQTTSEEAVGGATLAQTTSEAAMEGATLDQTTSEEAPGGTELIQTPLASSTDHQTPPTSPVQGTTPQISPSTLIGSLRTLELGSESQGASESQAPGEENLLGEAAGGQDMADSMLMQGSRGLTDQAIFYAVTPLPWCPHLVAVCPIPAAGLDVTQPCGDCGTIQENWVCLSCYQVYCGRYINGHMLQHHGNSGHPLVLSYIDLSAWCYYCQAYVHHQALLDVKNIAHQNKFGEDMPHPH
Experiment: Enzymatic screening, HDAC6 inhibition (fluorogenic FdL_G substrate)
Protocol: For each test compound, 100× concentrated DMSO solutions at 8 doses were prepared and then diluted in assay buffer (25 mM Tris-HCl, pH 8, 130 mM NaCl, 0.05% Tween-20, 10% Glycerol) to obtain 5× concentrated solutions in relation to the final concentrations (typical final concentration range—6.4-200000 nM or 0.18-50000 nM, final DMSO content—1%). […]
Observable: IC50 (nM)

Solved entries (count: 10):
1. Nc1cccc(-c2cn(Cc3ccc(-c4nnc(C(F)F)o4)cc3)cn2)c1 [compd. 197]	107
2. [2H]C([2H])(c1ccc(-c2nnc(C(F)F)o2)cn1)n1cc(-c2ccc(N)nc2)nn1 [compound 362]	18
3. FC(F)c1nnc(-c2ccc(Cn3nnc(-c4csc5ccccc45)n3)cc2)o1 [compound 207]	129
4. CCNc1cccc(-c2cn(Cc3c(F)cc(-c4nnc(C(F)F)o4)cc3F)nn2)c1 [compound 114]	43
5. CC(C)(C)OC(=O)N1CCC2(C1)C(=O)Nc1ccc(-c3cn(Cc4ccc(-c5nnc(C(F)F)o5)cn4)nn3)cc12 (single isomer, unassigned) [compound 265]	26
6. Nc1ccc(-c2nnn(Cc3c(F)cc(-c4nnc(C(F)F)o4)cc3F)n2)cn1 [compound 45]	20
7. Nc1ccc(-c2cn(Cc3ccc(-c4nnc(C(F)F)o4)cn3)cn2)cn1 [compound 12]	20
8. Nc1ccc(-c2cn(Cc3ccc(-c4nnc(C(F)F)o4)c(F)c3F)nn2)cn1 [compound 21]	17
9. Nc1nc2ccc(-n3cc(Cc4ccc(-c5nnc(C(F)F)o5)cc4)nn3)cc2s1 [compd. 377]	370
10. CN1CC(=O)Nc2cc(-c3cn(Cc4c(F)cc(-c5nnc(C(F)F)o5)cc4F)nn3)ccc2C1 [Compd. 237]	210

P. Nc1nc2ccc(-c3cn(Cc4cc(F)c(-c5nnc(C(F)F)o5)cc4F)nn3)cc2s1 [compound 343]
Q. CNc1ccc2cc(-c3cn(Cc4ccc(-c5nnc(C(F)F)o5)cc4)nn3)ccc2n1 [compound 142]
R. Nc1nccc2cc(-c3nnn(Cc4ccc(-c5nnc(C(F)F)o5)cc4Cl)n3)ccc12 [compound 422]
S. FC(F)c1nnc(-c2ccc(Cn3nnc(-c4cccc(-c5nc6c([nH]5)CNCC6)c4)n3)c(Cl)c2)o1 [compound 365]
Ordering: ascending IC50. A ranking is expressed here by listing the labels in the requested order.
P, Q, S, R
(P: 31 nM, Q: 59 nM, S: 106 nM, R: 249 nM)

###

Molecular target: recombinant human HDAC6 (Homo sapiens (Human))
Experiment: Enzymatic screening, HDAC6 inhibition (fluorogenic FdL_G substrate)
Format: biochemical
Observable: IC50 (µM)

Solved entries (count: 2):
1. Nc1ncnc2sc(-c3cn(Cc4ccc(-c5nnc(C(F)F)o5)cc4)nn3)cc12	0.089
2. Cc1ncccc1-c1cn(Cc2ccc(-c3nnc(C(F)F)o3)cn2)nn1	0.043

a. O=C(Nc1cccc(-c2cn(Cc3ncc(-c4nnc(C(F)F)o4)cc3F)nn2)c1)N1CCOCC1
b. Nc1ccc(-c2cnn(Cc3ccc(-c4nnc(C(F)F)o4)cn3)c2)cn1
c. Nc1ccc(-c2cn(C(COc3ccccc3)c3ccc(-c4nnc(C(F)F)o4)cc3)nn2)cn1 (centres unmarked)
Sort these molecules on IC50 so the largest reading comes first. A ranking is expressed here by listing the labels in the requested order.
c, a, b

A. Nc1ccc(-c2nc(Cc3c(F)cc(-c4nnc(C(F)F)o4)cc3F)no2)cn1
B. CCC[C@@H](c1ccc(-c2nnc(C(F)F)o2)cc1)n1cc(-c2ccc(N)nc2)nn1 [compound 250]
Please indicate which has the smaller reported IC50: A , or B . Mark your selection by writing its label.
A
(A: 0.056 µM, B: 0.293 µM)

###

Experiment: Stability in rat plasma
Details: after 4 hours, 37° C.
Observable: residual percentage in RAT PLASMA (%)

1. CC(c1ccc(-c2nnc(C(F)F)o2)c(F)c1)n1cc(-c2ccc(N)nc2)nn1 (stereo not shown) [compound 186]	86
2. CC(=O)Nc1cc(-c2nnn(Cc3ccc(-c4nnc(C(F)F)o4)cc3)n2)cnc1C [compound 133]	69
3. Nc1ncnc2cc(-c3cn(Cc4ccc(-c5nnc(C(F)F)o5)cc4)nn3)ccc12 [compound 84]	60
4. Nc1ccc(-c2nnc(Cc3ccc(-c4nnc(C(F)F)o4)cc3)o2)cn1 [Compd. 218]	69
5. CN1CCN(C(=O)Nc2cccc(-c3cn(Cc4ccc(-c5nnc(C(F)F)o5)cn4)nn3)c2)CC1 [Compd. 51]	79
6. Nc1cncc(-c2nnn(Cc3ccc(-c4nnc(C(F)F)o4)cc3)n2)c1 [compound 90]	88
7. NC(=O)c1cccc(-c2nnn(Cc3ccc(-c4nnc(C(F)F)o4)cc3)n2)c1 [compound 75]	76
8. CS(=O)(=O)NCCC(c1ccc(-c2nnc(C(F)F)o2)cc1)c1cn(-c2ccc(N)nc2)nn1 (stereo not shown) [Compd. 62]	69
9. Nc1nc2ccc(-c3cn(Cc4ccc(-c5nnc(C(F)F)o5)cn4)nn3)cc2s1 [Compd. 1]	79
10. FC(F)c1nnc(-c2ccc(Cn3nnnc3-c3csc4ccccc34)cc2)o1 [compound 288]	86
11. Nc1nc2cc(-c3nnn(Cc4ccc(-c5nnc(C(F)F)o5)cn4)n3)ccc2o1 [compound 7]	81
12. C[C@@H](c1ccc(-c2nnc(C(F)F)o2)cc1)n1cc(-c2cccc(NC(=O)N3CCOCC3)c2)nn1 (stereo in doubt) [compound 104]	87
13. O=C(Nc1ccc(-c2nnc(Cc3ccc(-c4nnc(C(F)F)o4)cn3)s2)cn1)C(F)F [Compd. 102]	90
14. CCNc1nc2ccc(-c3cn(Cc4ccc(-c5nnc(C(F)F)o5)cn4)nn3)cc2[nH]1 [compound 18]	69
15. Nc1ccc(-c2cn(Cc3ccc(-c4nnc(C(F)F)o4)c(F)c3F)nn2)cn1 [compound 21]	75
16. FC(F)c1nnc(-c2ccc(Cn3cc(-c4ccc5nc(Cl)[nH]c5c4)nn3)nc2)o1 [Compd. 9]	87
17. CCNc1ccc(-c2nnn(Cc3ccc(-c4nnc(C(F)F)o4)cc3)n2)cn1 [compound 99]	93
18. O=C1NCc2ccc(-c3nnn(Cc4ccc(-c5nnc(C(F)F)o5)cn4)n3)cc21 [compound 4]	78
19. O=C1Nc2ccc(-c3cn(Cc4ccc(-c5nnc(C(F)F)o5)cn4)nn3)cc2[C@@]12CCNC2 (single isomer, unassigned) [compound 273]	74
20. CCC[C@@H](c1ccc(-c2nnc(C(F)F)o2)cc1)n1cc(-c2ccc(N)nc2)nn1 [compound 250]	82
21. FC(F)c1nnc(-c2ccc(Cn3nnc(-c4cccc(-c5nc6c([nH]5)CCNC6)c4)n3)cc2)o1 [compound 108]	77
22. FC(F)c1nnc(-c2ccc(Cn3cc(-c4ccc(NC5=NCCN5)cc4)cn3)nc2)o1 [compd. 270]	78
